- study.target: human recombinant adrenergic α2A receptor (Homo sapiens, UniProt P08913)
- Construct: expressed in transfected cells; host or cells: insect Sf9 cells
- Sequence (P08913 whole entry): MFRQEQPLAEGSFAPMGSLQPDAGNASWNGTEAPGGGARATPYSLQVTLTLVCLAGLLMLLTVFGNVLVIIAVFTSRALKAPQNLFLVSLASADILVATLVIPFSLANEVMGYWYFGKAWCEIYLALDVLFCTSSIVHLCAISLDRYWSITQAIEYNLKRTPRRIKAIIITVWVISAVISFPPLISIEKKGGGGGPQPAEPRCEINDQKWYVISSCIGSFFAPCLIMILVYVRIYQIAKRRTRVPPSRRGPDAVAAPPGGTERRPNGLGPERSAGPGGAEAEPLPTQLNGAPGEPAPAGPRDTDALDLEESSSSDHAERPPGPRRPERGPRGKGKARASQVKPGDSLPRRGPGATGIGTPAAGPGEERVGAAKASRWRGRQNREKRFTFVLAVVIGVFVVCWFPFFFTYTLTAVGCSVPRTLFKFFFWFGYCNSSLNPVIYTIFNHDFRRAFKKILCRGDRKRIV
- test.protocol: Radioligand binding, adrenergic α2A ([3H]MK-912)
- recorded.conditions: 0.1 μM compound; read-out: Percentage inhibition of ligand binding, Adrenergic α2A
- Procedure: To evaluate in radioligand binding assays the activity of compounds of the invention, human recombinant adrenergic α2A receptor expressed in insect Sf9 cells (Uhlen, S. et al, J. Pharmacol. Exp. Ther. 271:1558, 1994) in a modified Tris-HCl buffer (50 mM Tris-HCl, pH 7.4, 12.5 mM MgCl2, 2 mM EDTA) was used. […] Receptor proteins were filtered and washed, the filters were then counted to determine [^3H]MK-912 specifically bound. […]
Binning of inhibition at 0.1 µM into classes: low group (below 60%), middle group (60% to below 90%), high group (90% or more)

Examples with answers:
>>> label_value("Cc1cnc2c(c1)c1c(n2CC(C)(O)c2cccnc2)CCN(C)C1 (single isomer, unassigned) [II-99a]")
"low group"
>>> label_value("C/C(=C\\c1ccccc1)n1c2c(c3cc(C)ccc31)CN(C)CC2")
"middle group"
>>> label_value("OC(Cn1c2c(c3cc(Cl)cnc31)CN1CCCC1C2)c1ccncc1 (stereo not shown)")
"low group"
>>> label_value("CN1CCc2c(c3cc(CO)ccc3n2CC(O)c2ccncc2)C1 (stereo not shown)")
"low group"
>>> label_value("C/C(=C/n1c2c(c3cc(C)ccc31)CN(C)CC2)c1cccc2ccccc12")
"middle group"

--- query ---
Q. Category lookup for the compound "Cc1ccc2c(c1)c1c(n2C#Cc2ccc(S(N)(=O)=O)cc2)CN(C)CC1"
A. low group

###

Below is a list of entries, each paired with its recorded inhibition at 0.1 µM value.
- study.target: rat adrenergic α1B receptor (Rattus norvegicus, UniProt P15823)
- Construct: rat adrenergic α1B receptor obtained from Wistar Rat liver; from tissue; host or cells: Wistar rat liver
- Sequence (P15823 whole entry): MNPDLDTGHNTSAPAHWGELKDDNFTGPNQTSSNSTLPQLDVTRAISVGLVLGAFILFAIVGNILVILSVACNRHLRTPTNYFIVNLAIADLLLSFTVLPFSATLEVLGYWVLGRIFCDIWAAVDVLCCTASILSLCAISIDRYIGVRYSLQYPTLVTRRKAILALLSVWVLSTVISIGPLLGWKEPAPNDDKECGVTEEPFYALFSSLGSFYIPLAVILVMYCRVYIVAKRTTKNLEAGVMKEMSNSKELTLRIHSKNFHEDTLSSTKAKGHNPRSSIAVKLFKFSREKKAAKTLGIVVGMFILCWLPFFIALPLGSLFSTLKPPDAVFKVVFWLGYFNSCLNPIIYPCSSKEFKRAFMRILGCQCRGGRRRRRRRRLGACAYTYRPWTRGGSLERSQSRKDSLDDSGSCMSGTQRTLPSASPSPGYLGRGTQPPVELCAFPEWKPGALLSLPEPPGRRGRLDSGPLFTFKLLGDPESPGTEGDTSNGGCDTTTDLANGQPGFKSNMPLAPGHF
- test.protocol: Radioligand binding, adrenergic α1B ([3H]Prazosin)
- recorded.conditions: compound at 0.1 μM; [3H]Prazosin; repeat assays, each datapoint shown; read-out: Percentage inhibition of ligand binding, Adrenergic α1B
The reply should be a number in %, with the unit left off.

Below, 2 compounds whose answers are already recorded.
>>> recorded_number("Cc1ccc2c(c1)c1c(n2CC(C)(O)c2ccncc2)CCN(C)C1 (stereo not drawn) [compound 2]")
27
>>> recorded_number("Cc1ccc2c(c1)c1c(n2CC(C)(O)c2cccnc2)CCN(C)C1 (single isomer, unassigned) [5a]")
18

Now let's try a different one.
Q. Look up and report measured inhibition at 0.1 µM for this entry: Cc1cnc2c(c1)c1c(n2CCc2ccc(C)nc2)CCN2CCCC12 (single isomer, unassigned) [74a]
A. 91

###

- study.target: human recombinant adrenergic α2B receptor (Homo sapiens)
- Construct: expressed in transfected cells; host or cells: CHO-K1
- Sequence (P18089 whole entry): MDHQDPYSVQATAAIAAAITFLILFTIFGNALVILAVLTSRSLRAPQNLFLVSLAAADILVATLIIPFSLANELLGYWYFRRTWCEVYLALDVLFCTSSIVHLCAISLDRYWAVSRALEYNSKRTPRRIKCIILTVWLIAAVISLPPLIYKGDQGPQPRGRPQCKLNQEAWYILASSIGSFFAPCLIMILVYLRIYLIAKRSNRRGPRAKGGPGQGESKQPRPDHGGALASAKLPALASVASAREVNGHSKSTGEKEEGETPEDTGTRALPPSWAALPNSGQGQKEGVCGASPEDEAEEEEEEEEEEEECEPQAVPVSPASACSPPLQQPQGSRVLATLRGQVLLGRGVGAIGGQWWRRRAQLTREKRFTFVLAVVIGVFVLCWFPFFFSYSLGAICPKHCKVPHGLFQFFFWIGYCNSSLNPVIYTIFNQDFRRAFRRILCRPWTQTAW
- test.protocol: Radioligand binding, adrenergic α2B ([3H]Rauwolscine)
- recorded.conditions: 0.1 μM compound; read-out: Percentage inhibition of ligand binding, Adrenergic α2B
quantity.measured: inhibition at 0.1 µM (%)
The reply should be a number in %, with the unit left off.

>>> recorded_number("C/C(=C\\n1c2c(c3cc(Cl)ccc31)CN(C)CC2)c1ccc(S(C)(=O)=O)cc1")
90
>>> recorded_number("CSc1cccc(/C(C)=C/n2c3c(c4cc(Cl)ccc42)CN(C)CC3)c1")
79
>>> recorded_number("Cc1ccc(CCn2c3c(c4cc(Cl)c(Cl)cc42)CN(C)CC3)cn1")
49

Q. Look up and report measured inhibition at 0.1 µM (human recombinant adrenergic α2B receptor (Homo sapiens)) for the following compound: "C/C(=C/n1c2c(c3cc(C)ccc31)CN(C)CC2)c1cnc(N(C)C)nc1"
A. 92

Q. Look up and report measured inhibition at 0.1 µM (human recombinant adrenergic α2B receptor (Homo sapiens)) for the following compound: "C/C(=C\n1c2c(c3cc(C)ccc31)CN(C)CC2)c1cc(C)cs1"
A. 97

Q. Look up and report measured inhibition at 0.1 µM (human recombinant adrenergic α2B receptor (Homo sapiens)) for the following compound: "COc1ccc(/C(C)=C/n2c3c(c4cc(C)ccc42)CN(C)CC3)cn1"
A. 92

Q. Look up and report measured inhibition at 0.1 µM (human recombinant adrenergic α2B receptor (Homo sapiens)) for the following compound: "COc1ccc(C#Cn2c3c(c4cc(Cl)ccc42)CCN(C)CC3)cc1F"
A. 98

Q. Look up and report measured inhibition at 0.1 µM (human recombinant adrenergic α2B receptor (Homo sapiens)) for the following compound: "Cc1ccc2c(c1)c1c(n2C=C(c2ccccc2)c2ccccc2)CCN(C)C1"
A. 85

Q. Look up and report measured inhibition at 0.1 µM (human recombinant adrenergic α2B receptor (Homo sapiens)) for the following compound: "Cc1ccc2c(c1)c1c(n2C#Cc2ccncc2)CCN(C)C1"
A. 82
